EXPERIMENTAL_TARGET: T cell α4β7 integrin (Homo sapiens, UniProt P13612+P26010)
Construct: Blood samples were obtained from healthy volunteers' blood donation; endogenous in cells; host or cells: CD4-positive T cells in whole blood of healthy human volunteers
Sequence (P13612 34-1032): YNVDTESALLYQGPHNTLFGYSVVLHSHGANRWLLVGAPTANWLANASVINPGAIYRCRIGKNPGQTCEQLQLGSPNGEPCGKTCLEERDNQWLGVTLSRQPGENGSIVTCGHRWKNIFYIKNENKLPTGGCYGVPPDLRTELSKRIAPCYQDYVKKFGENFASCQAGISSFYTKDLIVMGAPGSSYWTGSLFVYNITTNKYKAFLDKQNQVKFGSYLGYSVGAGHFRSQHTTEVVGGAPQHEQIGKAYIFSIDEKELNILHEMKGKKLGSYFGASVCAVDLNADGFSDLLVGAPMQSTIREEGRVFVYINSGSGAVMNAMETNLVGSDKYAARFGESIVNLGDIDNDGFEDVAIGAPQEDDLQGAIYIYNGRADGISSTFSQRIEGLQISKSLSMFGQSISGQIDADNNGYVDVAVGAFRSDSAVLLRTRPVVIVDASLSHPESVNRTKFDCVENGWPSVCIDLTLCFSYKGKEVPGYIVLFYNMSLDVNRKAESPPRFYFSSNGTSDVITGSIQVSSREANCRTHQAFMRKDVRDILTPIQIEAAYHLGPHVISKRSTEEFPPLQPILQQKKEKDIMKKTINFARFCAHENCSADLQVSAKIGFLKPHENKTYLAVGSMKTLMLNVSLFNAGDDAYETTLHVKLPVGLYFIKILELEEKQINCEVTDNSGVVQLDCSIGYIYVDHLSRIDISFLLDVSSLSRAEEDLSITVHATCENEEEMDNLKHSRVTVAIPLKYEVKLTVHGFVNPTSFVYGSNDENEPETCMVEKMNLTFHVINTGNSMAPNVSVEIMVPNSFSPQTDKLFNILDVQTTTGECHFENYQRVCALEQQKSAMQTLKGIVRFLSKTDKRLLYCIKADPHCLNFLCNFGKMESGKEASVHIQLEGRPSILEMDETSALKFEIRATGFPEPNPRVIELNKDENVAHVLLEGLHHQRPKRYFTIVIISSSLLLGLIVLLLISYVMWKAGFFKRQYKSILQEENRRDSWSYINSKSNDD
Sequence (P26010 20-798): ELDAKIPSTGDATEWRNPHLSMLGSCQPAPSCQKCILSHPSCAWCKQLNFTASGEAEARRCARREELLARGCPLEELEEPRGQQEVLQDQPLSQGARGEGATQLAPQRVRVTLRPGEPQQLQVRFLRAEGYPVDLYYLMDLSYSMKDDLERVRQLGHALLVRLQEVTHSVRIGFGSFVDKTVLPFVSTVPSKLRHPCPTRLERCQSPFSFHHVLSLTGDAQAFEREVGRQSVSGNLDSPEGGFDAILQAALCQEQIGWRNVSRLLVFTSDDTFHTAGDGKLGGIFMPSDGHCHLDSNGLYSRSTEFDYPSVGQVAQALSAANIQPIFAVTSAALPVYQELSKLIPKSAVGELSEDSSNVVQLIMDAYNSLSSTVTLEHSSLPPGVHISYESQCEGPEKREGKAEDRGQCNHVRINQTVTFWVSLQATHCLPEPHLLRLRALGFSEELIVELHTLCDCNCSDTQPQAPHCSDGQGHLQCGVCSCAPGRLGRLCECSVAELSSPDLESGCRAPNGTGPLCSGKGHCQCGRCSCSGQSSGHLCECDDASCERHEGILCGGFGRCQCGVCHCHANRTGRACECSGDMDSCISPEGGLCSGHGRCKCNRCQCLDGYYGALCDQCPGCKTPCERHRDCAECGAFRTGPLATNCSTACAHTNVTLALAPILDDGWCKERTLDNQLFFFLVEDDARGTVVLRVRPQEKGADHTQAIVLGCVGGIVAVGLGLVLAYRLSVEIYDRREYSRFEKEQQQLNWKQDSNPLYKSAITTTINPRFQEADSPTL
PROTOCOL: Mouse MAdCAM-1/α4β7 integrin binding inhibitory activity evaluation test in whole human blood
Assay type: cell-based
CONDITION_SUMMARY: recombinant mouse MAdCAM-1/Fc, CD4 positive cells, flow cytometry
ASSAY_METRIC: pIC50
In simple prose, pIC50 is minus the logarithm base ten of a concentration in moles per litre.

>  <MOL_SMILES>
Cn1ccc(=O)n(-c2ccc(C[C@H](NC(=O)c3cc(F)c(NS(=O)(=O)c4ccc(NC(=O)C(C)(C)C)cc4)cc3F)C(=O)O)cc2)c1=O

>  <pIC50>
8.66

$$$$
>  <MOL_SMILES>
Cn1c2c(c(=O)n(-c3ccc(C[C@H](NC(=O)c4cc(F)c(NS(=O)(=O)c5ccc(NC(=O)C(C)(C)C)cc5)cc4F)C(=O)O)cn3)c1=O)CCOC2

>  <pIC50>
8.64

$$$$
>  <MOL_SMILES>
Cc1c(C)n(C)c(=O)n(-c2ccc(C[C@H](NC(=O)c3cc(F)c(NS(=O)(=O)c4ccc(NC(=O)C(C)(C)C)cc4)cc3F)C(=O)O)cc2)c1=O

>  <pIC50>
8.89

$$$$
>  <MOL_SMILES>
Cc1cc(=O)n(-c2ccc(C[C@H](NC(=O)c3cc(F)c(NS(=O)(=O)c4ccc(NC(=O)C(C)(C)C)cc4)cc3F)C(=O)O)cc2)c(=O)n1C

>  <pIC50>
8.80

$$$$
>  <MOL_SMILES>
Cc1cc(=O)n(-c2ccc(C[C@H](NC(=O)c3cc(F)c(NS(=O)(=O)c4ccc(NC(=O)C(C)(C)C)cc4)cc3F)C(=O)O)cn2)c(=O)n1C

>  <pIC50>
8.89

$$$$
>  <MOL_SMILES>
Cc1c(C)n(C)c(=O)n(-c2ccc(C[C@H](NC(=O)c3cc(F)c(NS(=O)(=O)c4ccc(NC(=O)C(C)(C)C)cc4)cc3F)C(=O)O)cn2)c1=O

>  <pIC50>
8.92

$$$$

**Q:** # pIC50 lookup, item Cn1c2c(c(=O)n(-c3ccc(C[C@H](NC(=O)c4cc(F)c(NS(=O)(=O)c5ccc(NC(=O)C(C)(C)C)cc5)cc4F)C(=O)O)cn3)c1=O)COCC2
**A:** 9.00

###

EXPERIMENTAL_TARGET: α4β7 integrin (Homo sapiens, UniProt P13612+P26010)
Construct: a cell line RPMI-8866, which is known to express α4β7 integrin; endogenous in cells; host or cells: RPMI-8866 (human B cell line)
Sequence (P13612 34-1032): as the sequence (P13612 34-1032) above
Sequence (P26010 20-798): as the sequence (P26010 20-798) above
PROTOCOL: MAdCAM-1/α4β7 integrin binding inhibitory activity evaluation test in presence of serum
Assay type: cell-based
CONDITION_SUMMARY: RPMI-8866 cells, recombinant mouse MAdCAM-1/Fc, 50% human serum; read-out: α4β7 Serum Added IC50
ASSAY_METRIC: IC50
Answer with the value and then the unit.

>  <MOL_SMILES>
CCC(CC)C(=O)Nc1ccc(S(=O)(=O)Nc2cc(F)c(C(=O)N[C@@H](Cc3ccc(-n4c(=O)ccn(C)c4=O)nc3)C(=O)O)cc2F)cc1

>  <ASSAY_METRIC>
IC50

>  <VALUE_MEASURED>
62 nM

$$$$
>  <MOL_SMILES>
Cc1c(C)n(C)c(=O)n(-c2ccc(C[C@H](NC(=O)c3cc(F)c(NS(=O)(=O)c4ccc(NC(=O)C(C)(C)C)cc4)cc3F)C(=O)O)cc2)c1=O

>  <ASSAY_METRIC>
IC50

>  <VALUE_MEASURED>
3.7 nM

$$$$
>  <MOL_SMILES>
Cn1c(=O)n(-c2ccc(C[C@H](NC(=O)c3cc(F)c(NS(=O)(=O)c4ccc(NC(=O)C(C)(C)C)cn4)cc3F)C(=O)O)cn2)c(=O)c2ccncc21

>  <ASSAY_METRIC>
IC50

>  <VALUE_MEASURED>
5 nM

$$$$
>  <MOL_SMILES>
Cn1c2c(c(=O)n(-c3ccc(C[C@H](NC(=O)c4cc(F)c(NS(=O)(=O)c5ccc(NC(=O)C(C)(C)C)cc5)cc4F)C(=O)O)cc3)c1=O)CCOC2

>  <ASSAY_METRIC>
IC50

>  <VALUE_MEASURED>
2.4 nM

$$$$
>  <MOL_SMILES>
Cc1c(C)n(C)c(=O)n(-c2ccc(C[C@H](NC(=O)c3cc(F)c(NS(=O)(=O)c4cccc(NC(=O)C(C)(C)C)c4)cc3F)C(=O)O)cn2)c1=O

>  <ASSAY_METRIC>
IC50

>  <VALUE_MEASURED>
63 nM

$$$$
>  <MOL_SMILES>
Cc1c(C)n(C)c(=O)n(-c2ccc(C[C@H](NC(=O)c3cc(F)c(NS(=O)(=O)c4cccc(NC(=O)C(C)(C)C)c4)cc3F)C(=O)O)cc2)c1=O

>  <ASSAY_METRIC>
IC50

>  <VALUE_MEASURED>
45 nM

$$$$
>  <MOL_SMILES>
Cn1c2c(c(=O)n(-c3ccc(C[C@H](NC(=O)c4cc(F)c(NS(=O)(=O)c5ccc(NC(=O)C(C)(C)C)cc5)cc4F)C(=O)O)cc3)c1=O)COCC2

>  <ASSAY_METRIC>
IC50

>  <VALUE_MEASURED>
1.7 nM

$$$$
>  <MOL_SMILES>
Cc1cn(C)c(=O)n(-c2ccc(C[C@H](NC(=O)c3cc(F)c(NS(=O)(=O)c4c[nH]c5cc(NC(=O)C(C)(C)C)ccc45)cc3F)C(=O)O)cn2)c1=O

>  <ASSAY_METRIC>
IC50

>  <VALUE_MEASURED>
25 nM

$$$$

**Q:** # IC50 lookup, item Cn1ccc(=O)n(-c2ccc(C[C@H](NC(=O)c3cc(F)c(NS(=O)(=O)c4ccc(NC(=O)C(C)(C)CO)cc4)cc3F)C(=O)O)cn2)c1=O
**A:** 22 nM

**Q:** # IC50 lookup, item Cn1c2c(c(=O)n(-c3ccc(C[C@H](NC(=O)c4cc(F)c(NS(=O)(=O)c5ccc(NC(=O)C(C)(C)C)cc5)cc4F)C(=O)O)nc3)c1=O)CCCC2
**A:** 15 nM

**Q:** # IC50 lookup, item Cc1cn(C)c(=O)n(-c2ccc(C[C@H](NC(=O)c3cc(F)c(NS(=O)(=O)c4ccc(NC(=O)C5(C(F)(F)F)CC5)cc4)cc3F)C(=O)O)cn2)c1=O
**A:** 19 nM

**Q:** # IC50 lookup, item Cc1c(C)n(C)c(=O)n(-c2ccc(C[C@H](NC(=O)c3cc(F)c(NS(=O)(=O)c4ccc(NC(=O)C(C)(C)C)cn4)cc3F)C(=O)O)cc2)c1=O
**A:** 4.6 nM

**Q:** # IC50 lookup, item Cc1c(C)n(C)c(=O)n(-c2ccc(C[C@H](NC(=O)c3cc(F)c(NS(=O)(=O)c4ccc(N(C)C(=O)C(C)(C)C)cc4)cc3F)C(=O)O)cc2)c1=O
**A:** 600 nM

**Q:** # IC50 lookup, item Cc1cc(=O)n(-c2ccc(C[C@H](NC(=O)c3cc(F)c(NS(=O)(=O)c4ccc(NC(=O)C(C)(C)C)cc4)cc3F)C(=O)O)nc2)c(=O)n1C
**A:** 28 nM

**Q:** # IC50 lookup, item Cc1c(C)n(C)c(=O)n(-c2ccc(C[C@H](NC(=O)c3cc(F)c(NS(=O)(=O)c4ccc(NC(=O)C(C)(C)C)cc4)cc3F)C(=O)O)cn2)c1=O
**A:** 4.4 nM

Where do these numbers come from? They come from patent US10562898B2.
